assayed system: mTOR (Homo sapiens)
Construct: purchased Invitrogen Corporation (Carlsbad/Calif., USA) PV4753
Sequence (P42345 1360-2549 limits assumed): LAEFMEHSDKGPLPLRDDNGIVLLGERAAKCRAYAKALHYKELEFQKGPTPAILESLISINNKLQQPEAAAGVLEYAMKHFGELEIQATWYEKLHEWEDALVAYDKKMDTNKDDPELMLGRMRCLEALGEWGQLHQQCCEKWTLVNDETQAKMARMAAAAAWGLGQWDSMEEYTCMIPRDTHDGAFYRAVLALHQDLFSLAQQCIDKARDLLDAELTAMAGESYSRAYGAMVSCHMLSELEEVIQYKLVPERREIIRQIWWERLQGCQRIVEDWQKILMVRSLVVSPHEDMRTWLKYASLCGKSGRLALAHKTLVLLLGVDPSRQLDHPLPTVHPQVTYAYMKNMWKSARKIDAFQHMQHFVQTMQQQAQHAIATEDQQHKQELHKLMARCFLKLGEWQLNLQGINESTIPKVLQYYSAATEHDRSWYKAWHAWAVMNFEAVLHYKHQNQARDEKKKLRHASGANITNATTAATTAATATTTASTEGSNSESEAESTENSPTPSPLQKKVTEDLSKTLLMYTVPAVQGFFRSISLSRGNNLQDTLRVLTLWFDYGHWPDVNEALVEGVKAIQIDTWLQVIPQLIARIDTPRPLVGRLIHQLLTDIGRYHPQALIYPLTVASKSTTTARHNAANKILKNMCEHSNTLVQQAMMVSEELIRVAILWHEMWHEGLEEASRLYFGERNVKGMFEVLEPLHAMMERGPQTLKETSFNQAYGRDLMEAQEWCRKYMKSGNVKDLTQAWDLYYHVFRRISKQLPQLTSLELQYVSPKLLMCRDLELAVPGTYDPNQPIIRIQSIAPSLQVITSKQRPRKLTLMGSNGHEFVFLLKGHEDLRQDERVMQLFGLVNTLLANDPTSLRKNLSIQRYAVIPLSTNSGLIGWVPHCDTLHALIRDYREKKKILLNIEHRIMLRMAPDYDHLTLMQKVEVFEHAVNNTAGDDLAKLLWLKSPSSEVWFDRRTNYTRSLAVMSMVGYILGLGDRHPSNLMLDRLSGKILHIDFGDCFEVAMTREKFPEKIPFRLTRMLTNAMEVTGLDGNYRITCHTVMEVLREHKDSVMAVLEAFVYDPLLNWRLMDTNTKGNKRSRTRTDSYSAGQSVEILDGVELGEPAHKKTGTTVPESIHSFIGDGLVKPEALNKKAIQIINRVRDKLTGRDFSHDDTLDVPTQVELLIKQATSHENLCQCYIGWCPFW
measurement description: Biochemical assay for m-TOR by TR-FRET
test context: read-out: EPK_mTOR/IC50
Binary call on IC50 with cut-off 40 nM: strictly below means Criterion met, and equality or higher means Criterion not met.

>  <compound>
CCNc1cc(-c2ccc3ncc4c(c3c2)n(-c2cccnc2C)c(=O)n4C)cnc1CO [Example 2.31]

>  <class assignment>
Criterion met

$$$$
>  <compound>
Cc1nc(N2CCC2)ccc1-n1c(=O)n(C)c2cnc3ccc(-c4cncc(N5CCC5)c4)cc3c21 [Example 23.1]

>  <class assignment>
Criterion met

$$$$
>  <compound>
CCOc1cc(-c2ccc3ncc4c(c3c2)n(-c2ccc(N3CCCC3)nc2C)c(=O)n4C)cnc1COC [Example 25.2]

>  <class assignment>
Criterion not met

$$$$
>  <compound>
COCc1ncc(-c2ccc3ncc4c(c3c2)n(-c2ccc(OC)nc2OC)c(=O)n4C)cc1OC [Example 8.12]

>  <class assignment>
Criterion met

$$$$
>  <compound>
Cc1nc(N2CCC2)ccc1-n1c(=O)n(C)c2cnc3ccc(-c4cncc(C(C)(C)O)c4)cc3c21 [Example 23.3]

>  <class assignment>
Criterion met

$$$$

meta.source: patent US20100311714A1
